Tested on: PTP1B mRNA
Assay text: Antisense inhibition of human PTP1B in HuVEC cells at 3 nM (Example 23, Table 84)
Type: cell-based
Strand notation (5' to 3'): a small letter for the sugar, then the base; units joined by * are phosphorothioate-linked, units joined directly phosphodiester-linked; [ ] holds rarer units or linkages, { } end groups; capitals alone tell only the bases. e = 2'-O-(2-methoxyethyl) (MOE); [5mC] = 5-methylcytosine; d = 2'-deoxy (DNA)
Test readout: % Inhib (PTP1B mRNA) (%)
Express your answer in %, writing the number without its unit.

Worked examples follow.
404137 (antisense e[5mC]*eA*dG*dT*dG*dT*dG*d[5mC]*dA*d[5mC]*dA*d[5mC]*eA*eG) [compound 404137]	76
404140 (antisense eG*e[5mC]*dA*d[5mC]*dA*d[5mC]*dA*dG*d[5mC]*dT*dG*dA*eG*eG) [compound 404140]	73
399301 (antisense eG*eT*dG*dT*dG*d[5mC]*dA*d[5mC]*dA*d[5mC]*dA*dG*e[5mC]*eT) [compound 399301]	55
404139 (antisense eG*eT*dG*d[5mC]*dA*d[5mC]*dA*d[5mC]*dA*dG*d[5mC]*dT*eG*eA) [compound 404139]	80

Next substance, please.
Need % Inhib (PTP1B mRNA), item 404138 (antisense e[5mC]*eT*d[5mC]*dA*dG*dT*dG*dT*dG*d[5mC]*dA*d[5mC]*eA*e[5mC]) [compound 404138] 76

---

Assay text: Transaminase levels, liver and spleen weights, body weight (Example 6, Table 47)
Type: in vivo, mouse
Setup conditions: 8 μmol/kg single i.p.; 72 h; Balb/c mice
Text: Each dose group consisted of four animals. Shown in Table 46 are the sequences and motifs of the PTEN antisense compounds used in this study. Bolded residues indicate 2′-O-methoxyethyl moieties (2′-MOE) and italicized residues indicate Methyleneoxy BNA nucleotides. Each antisense compound comprises phosphorothioate linkages throughout. […]
Strand notation (5' to 3'): a small letter for the sugar, then the base; units joined by * are phosphorothioate-linked, units joined directly phosphodiester-linked; [ ] holds rarer units or linkages, { } end groups; capitals alone tell only the bases. e = 2'-O-(2-methoxyethyl) (MOE); l = locked nucleic acid (LNA); [5mC] = 5-methylcytosine; d = 2'-deoxy (DNA)
Spleen Weight values for the substances below.
Express your answer in % Saline, writing the number without its unit.

Worked examples follow.
384073 (antisense lG*lC*lT*dA*dG*d[5mC]*d[5mC]*dT*d[5mC]*dT*dG*dG*dA*lT*lT*lT) [compound 384073]	111
391172 (antisense lC*lT*dA*dG*dC*dC*dT*dC*dT*dG*dG*dA*lT*lT*lT) [compound 391172]	112
392061 (antisense l[5mC]*lT*dA*dG*dC*dC*dT*dC*dT*dG*dG*dA*lT*lT) [compound 392061]	111

Next substance, please.
Need Spleen Weight, item 141923 (antisense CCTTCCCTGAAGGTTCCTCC; sugars from the 5' end e5 d10 e5, all phosphorothioate, methylation of C not given here) [compound 141923] 108

---

SGLT2 mRNA in kidney, % change relative to saline values for the substances below.
System: SGLT2 mRNA
Assay text: SGLT2 mRNA levels in kidney of Balb/c mice, twenty 1-10-1 MOE gapmers at 350 nmol/kg, PPS 534 and PPS 553 (Example 18, Table 74)
Assay type: in vivo, mouse
Setup conditions: 350 nmol/kg i.p. twice per week for two weeks, primer probe set 534
Strand notation (5' to 3'): a small letter for the sugar, then the base; units joined by * are phosphorothioate-linked, units joined directly phosphodiester-linked; [ ] holds rarer units or linkages, { } end groups; capitals alone tell only the bases. e = 2'-O-(2-methoxyethyl) (MOE); [5mC] = 5-methylcytosine; d = 2'-deoxy (DNA)
Don't forget the unit after the value.

Worked examples follow.
379684 (antisense eT*dG*dT*d[5mC]*dA*dG*d[5mC]*dA*dG*dG*dA*eT) [compound 379684]	−45.0%
379695 (antisense eG*dG*dA*d[5mC]*dA*d[5mC]*d[5mC]*dG*dT*d[5mC]*dA*eG) [compound 379695]	−52.5%
379698 (antisense eG*d[5mC]*dA*dG*d[5mC]*d[5mC]*d[5mC]*dA*d[5mC]*d[5mC]*dT*e[5mC]) [compound 379698]	−11.8%
379686 (antisense eA*d[5mC]*d[5mC]*dA*d[5mC]*dA*dA*dG*d[5mC]*d[5mC]*dA*eA) [compound 379686]	−71.9%
379703 (antisense eG*d[5mC]*d[5mC]*dG*dG*dA*dG*dA*d[5mC]*dT*dG*eA) [compound 379703]	−44.2%

Need SGLT2 mRNA in kidney, % change relative to saline, item 379696 (antisense e[5mC]*dA*dG*d[5mC]*dT*dT*d[5mC]*dA*dG*dG*dT*eA) [compound 379696] −24.6%

Need SGLT2 mRNA in kidney, % change relative to saline, item 379687 (antisense eG*dA*dT*dG*dT*dT*dG*d[5mC]*dT*dG*dG*e[5mC]) [compound 379687] −47.1%

---

System: rat DGAT2 mRNA
Assay text: Dose-dependent inhibition of DGAT2 in A10 cells, 0.62-150 nM (Example 22, Table 83)
Type: cell-based
Setup conditions: 50 nM
Strand notation (5' to 3'): a small letter for the sugar, then the base; units joined by * are phosphorothioate-linked, units joined directly phosphodiester-linked; [ ] holds rarer units or linkages, { } end groups; capitals alone tell only the bases. e = 2'-O-(2-methoxyethyl) (MOE); [5mC] = 5-methylcytosine; d = 2'-deoxy (DNA)
percent inhibition of rat DGAT2 values for the substances below.
Please give the numeric answer without any surrounding text.

Worked examples follow.
372602 (antisense e[5mC]*e[5mC]*dA*dG*dG*d[5mC]*dA*dT*dG*dG*dA*dG*e[5mC]*eT) [compound 372602]	19
372516 (antisense eT*eA*e[5mC]*dA*dG*dA*dA*dG*dG*d[5mC]*dA*d[5mC]*d[5mC]*e[5mC]*eA*eG) [compound 372516]	35
372524 (antisense eG*e[5mC]*e[5mC]*dA*dG*dG*d[5mC]*dA*dT*dG*dG*dA*dG*e[5mC]*eT*e[5mC]) [compound 372524]	68
372586 (antisense eG*eT*dT*d[5mC]*d[5mC]*dT*dG*dG*dT*dG*dG*dT*e[5mC]*eA) [compound 372586]	7

Need percent inhibition of rat DGAT2, item 372501 (antisense eT*eT*eG*dT*dG*dT*dG*dT*d[5mC]*dT*dT*d[5mC]*dA*e[5mC]*e[5mC]*eA) [compound 372501] 25

Need percent inhibition of rat DGAT2, item 372508 (antisense eA*eG*eT*dT*d[5mC]*d[5mC]*dT*dG*dG*dT*dG*dG*dT*e[5mC]*eA*eG) [compound 372508] 39

---

Tested on: PCSK9 mRNA
Assay type: cell-based, human
Setup conditions: Hep3B cells, 100 nM, relative to untreated control cells; 0 = no reduction observed
Strand notation (5' to 3'): a small letter for the sugar, then the base; units joined by * are phosphorothioate-linked, units joined directly phosphodiester-linked; [ ] holds rarer units or linkages, { } end groups; capitals alone tell only the bases. e = 2'-O-(2-methoxyethyl) (MOE); [5mC] = 5-methylcytosine; d = 2'-deoxy (DNA)
Test readout: % Inhib (PCSK9 mRNA) (%)
Express your answer in %, writing the number without its unit.

400313 (eG*e[5mC]*dA*dT*d[5mC]*d[5mC]*d[5mC]*dG*dG*d[5mC]*d[5mC]*dG*e[5mC]*eT; antisense) [compound 400313]	10
400343 (eG*eG*dT*dG*d[5mC]*dT*dG*dG*dG*dG*dG*dG*e[5mC]*eA; antisense) [compound 400343]	0

Need % Inhib (PCSK9 mRNA), item 400351 (antisense eA*e[5mC]*d[5mC]*d[5mC]*dT*d[5mC]*dA*d[5mC]*d[5mC]*d[5mC]*d[5mC]*d[5mC]*eA*eA) [compound 400351] 14

Need % Inhib (PCSK9 mRNA), item 400356 (antisense eT*eA*dG*dA*d[5mC]*dA*d[5mC]*d[5mC]*d[5mC]*dT*d[5mC]*dA*e[5mC]*e[5mC]) [compound 400356] 0

Need % Inhib (PCSK9 mRNA), item 400360 (antisense eG*e[5mC]*dA*dT*dG*dG*d[5mC]*dA*dG*d[5mC]*dA*dG*eG*eA) [compound 400360] 38

Need % Inhib (PCSK9 mRNA), item 400328 (eA*e[5mC]*dG*dT*dG*dG*dG*d[5mC]*dA*dG*d[5mC]*dA*eG*e[5mC]; antisense) [compound 400328] 13

---

percent inhibition of rat DGAT2 values for the substances below.
System: rat DGAT2 mRNA
Assay text: Dose-dependent inhibition of DGAT2 in A10 cells, 0.62-150 nM (Example 22, Table 83)
Type: cell-based
Setup conditions: 150 nM
Strand notation (5' to 3'): a small letter for the sugar, then the base; units joined by * are phosphorothioate-linked, units joined directly phosphodiester-linked; [ ] holds rarer units or linkages, { } end groups; capitals alone tell only the bases. e = 2'-O-(2-methoxyethyl) (MOE); [5mC] = 5-methylcytosine; d = 2'-deoxy (DNA)
Please give the numeric answer without any surrounding text.

Worked examples follow.
372500 (antisense eG*eT*eG*dT*dG*dT*d[5mC]*dT*dT*d[5mC]*dA*d[5mC]*d[5mC]*eA*eG*e[5mC]) [compound 372500]	88
372530 (antisense eT*e[5mC]*eG*dG*d[5mC]*d[5mC]*d[5mC]*d[5mC]*dA*dG*dG*dA*dG*e[5mC]*e[5mC]*e[5mC]) [compound 372530]	78
372546 (antisense eT*eT*eG*dG*dT*d[5mC]*dT*dT*dG*dT*dG*dA*dT*eT*eG*eT) [compound 372546]	78
372618 (antisense eG*eT*dG*dG*dT*dA*d[5mC]*dA*dG*dG*dT*d[5mC]*eG*eA) [compound 372618]	60
372501 (antisense eT*eT*eG*dT*dG*dT*dG*dT*d[5mC]*dT*dT*d[5mC]*dA*e[5mC]*e[5mC]*eA) [compound 372501]	68
372594 (antisense eA*e[5mC]*dA*dG*dA*dA*dG*dG*d[5mC]*dA*d[5mC]*d[5mC]*e[5mC]*eA) [compound 372594]	15

Give percent inhibition of rat DGAT2 (rat DGAT2 mRNA) of the following substance: 372503 (antisense eG*e[5mC]*eA*dG*dG*dT*dT*dG*dT*dG*dT*dG*dT*e[5mC]*eT*eT) [compound 372503] 80

Give percent inhibition of rat DGAT2 (rat DGAT2 mRNA) of the following substance: 372602 (antisense e[5mC]*e[5mC]*dA*dG*dG*d[5mC]*dA*dT*dG*dG*dA*dG*e[5mC]*eT) [compound 372602] 51

Give percent inhibition of rat DGAT2 (rat DGAT2 mRNA) of the following substance: 372524 (antisense eG*e[5mC]*e[5mC]*dA*dG*dG*d[5mC]*dA*dT*dG*dG*dA*dG*e[5mC]*eT*e[5mC]) [compound 372524] 91

Give percent inhibition of rat DGAT2 (rat DGAT2 mRNA) of the following substance: 372580 (antisense eG*eG*dT*dT*dG*dT*dG*dT*dG*dT*d[5mC]*dT*eT*e[5mC]) [compound 372580] 42
